tested target: rat orexin 1 receptor (Rattus norvegicus)
assay: Rat orexin 1 receptor radioligand binding
reported conditions: rat orexin 1 receptor; averages of 2-20 runs; read-out: rOX1 Ki
measured endpoint: Ki (nM)

COc1cccc(-c2ccn[nH]2)c1C(=O)N1C[C@H]2C[C@@H](Oc3ccc(C(F)(F)F)cn3)[C@@H]1C2 [Example 39] | 72

[1] O=C(c1cccc(F)c1-c1ncccn1)N1C[C@H]2C[C@@H](Oc3cnc(C(F)(F)F)cn3)[C@@H]1C2 [Example 126]
[2] O=C(c1cccc(F)c1-c1ncc(F)cn1)N1C[C@@H]2CC[C@H]1[C@H](Oc1cnc(C(F)(F)F)cn1)C2 [Example 273]
Select the item whose Ki value is smaller, choosing between 1 and 2 . API: response body contains the label of the selected item.
1

====

tested target: rat orexin 1 receptor (Rattus norvegicus)
assay: Rat orexin 1 receptor radioligand binding
reported conditions: rat orexin 1 receptor; averages of 2-20 runs; read-out: rOX1 Ki
pKi: −log10 of the molar value.
measured endpoint: pKi

O=C(c1c(F)cccc1-c1ncccn1)N1C[C@H]2C[C@@H](Oc3ccc(Br)cn3)[C@@H]1C2 | 8.22
Cc1ccc(O[C@@H]2C[C@H]3CC[C@@H]2N(C(=O)c2cccc(F)c2-c2ncccn2)C3)nc1 | 7.59

[1] O=C(c1ccccc1-c1ncc(F)cn1)N1C[C@H]2C[C@@H](Nc3cnc(C(F)(F)F)cn3)[C@@H]1C2
[2] O=C(c1ccccc1-c1ncc(F)cn1)N1C[C@H]2C[C@@H](Oc3ccc(C(F)(F)F)cn3)[C@@H]1C2
Select the item whose pKi value is smaller, choosing between 1 and 2 . Please respond with the label that marks your chosen entry.
2

====

tested target: human orexin 2 receptor (Homo sapiens (Human))
Sequence (O43614 whole entry): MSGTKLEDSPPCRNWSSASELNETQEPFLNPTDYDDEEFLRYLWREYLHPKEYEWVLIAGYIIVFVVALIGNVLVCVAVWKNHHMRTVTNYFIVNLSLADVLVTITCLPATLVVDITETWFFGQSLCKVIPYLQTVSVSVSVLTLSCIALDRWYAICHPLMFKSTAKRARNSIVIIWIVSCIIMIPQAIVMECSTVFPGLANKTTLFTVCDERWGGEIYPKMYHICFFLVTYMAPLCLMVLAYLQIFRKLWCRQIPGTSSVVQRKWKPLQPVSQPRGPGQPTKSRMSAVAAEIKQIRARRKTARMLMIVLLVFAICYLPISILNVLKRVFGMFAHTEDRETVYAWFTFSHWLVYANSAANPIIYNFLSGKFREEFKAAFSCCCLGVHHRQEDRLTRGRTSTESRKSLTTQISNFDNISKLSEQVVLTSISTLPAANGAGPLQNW
assay: Human orexin 2 receptor radioligand binding
reported conditions: human orexin 2 receptor; averages of 2-20 runs; read-out: hOX2 Ki
pKi: −log10 of the molar value.
measured endpoint: pKi

O=C(c1cccc(F)c1-c1ncc(F)cn1)N1C[C@@H]2CC[C@H]1[C@H](Oc1ccc(C(F)(F)F)cn1)C2 | 5.96
Cc1cnc(C(=O)N2C[C@H]3C[C@@H](Oc4ccc(C(F)(F)F)cn4)[C@@H]2C3)c(-n2ccnn2)c1 | 5.85

====

Quick list: pKi per entry.
tested target: human orexin 2 receptor (Homo sapiens (Human))
assay: Human orexin 2 receptor radioligand binding
reported conditions: human orexin 2 receptor; averages of 2-20 runs; read-out: hOX2 Ki
pKi: −log10 of the molar value.

Reference set, count: 2
O=C(c1c(F)cccc1-c1ncco1)N1C[C@H]2C[C@@H](Oc3ccc(C(F)(F)F)cn3)[C@@H]1C2 [Example 292] | 6.17
CC(=O)N(c1ccc(C(F)(F)F)cn1)[C@@H]1C[C@H]2C[C@@H]1N(C(=O)c1cccc(F)c1-c1ncccn1)C2 [Example 162] | < 5.00

Which value of pKi has been reported for O=C(c1cccnc1-n1nccn1)N1C[C@H]2C[C@@H](Nc3cnc(C(F)(F)F)cn3)[C@@H]1C2 [Example 188] in the records?
< 5.00

====

tested target: human orexin 2 receptor (Homo sapiens (Human))
assay: Human orexin 2 receptor radioligand binding
reported conditions: human orexin 2 receptor; averages of 2-20 runs; read-out: hOX2 Ki
Attribute: pKi
// field semantics: pKi = negative decimal log of concentration (mol/L)

O=C(c1ccccc1-n1nccn1)N1CC2CCC1C(Nc1cnc(C(F)(F)F)cn1)C2 (racemic) [Example 254] | 6.51

Lab note: next compound to report on.
Requested field: pKi. Item: O=C(c1cccc(F)c1-c1ncccn1)N1C[C@H]2C[C@@H](Nc3ccc(C(F)(F)F)cn3)[C@@H]1C2 [Example 66]
6.74
